Data credit: ChEMBL document CHEMBL1909046

# Test Description: DRUGMATRIX: Calcium Channel Type L, Benzothiazepine radioligand binding (ligand: [3H] Diltiazem)
# Type: cell membranes, Rattus norvegicus, Wistar, Brain, Membrane
# Condition Info: Not Active = under 50% inhibition at 10 µM
Property: Ki

Examples from the recorded data:
Compound	Ki
C[C@](N)(Cc1ccc(O)c(O)c1)C(=O)O	Not Active
Nc1nc2c(ncn2CCC(CO)CO)c(=O)[nH]1	Not Active
C=CCC1(C(C)CCC)C(=O)NC(=O)NC1=O (stereo unspecified)	Not Active
O=c1ncn2nc(Sc3ccc(F)cc3F)ccc2c1-c1c(Cl)cccc1Cl	Not Active
CC1(C)O[C@@H]2C[C@H]3[C@@H]4CCC5=CC(=O)C=C[C@]5(C)[C@@]4(F)[C@@H](O)C[C@]3(C)[C@]2(C(=O)CO)O1 [TRIAMCINOLONE ACETONIDE]	Not Active

stdin: Reported Ki for CC1Cc2ccccc2N1NC(=O)c1ccc(Cl)c(S(N)(=O)=O)c1 (stereo unspecified) [INDAPAMIDE] : what is it?
stdout: Not Active
